System: Liver microsomes
Protocol: Intrinsic clearance in human liver microsomes
Type: ADME, Microsome
Design: unit not given here
Readout type: Intrinsic clearance
Could you keep your reply to the number by itself?

Identify the reported Intrinsic clearance for the following entry. "Cc1cccc(C(=O)N[C@H]2CCC[C@]3(CN=C(c4cccc(Cl)c4)O3)C2)n1"
13

Identify the reported Intrinsic clearance for the following entry. "O=C(N[C@H]1CCC[C@]2(CN=C(c3cccc(Cl)c3)O2)C1)c1ccccn1"
13

Identify the reported Intrinsic clearance for the following entry. "N#Cc1cccc(C(=O)N[C@@H]2CCC[C@@H](NC(=O)c3ccccn3)C2)c1"
0.5

Identify the reported Intrinsic clearance for the following entry. "O=C(N[C@@H]1CCC[C@@H](NC(=O)c2ccccn2)C1)c1cccc(Cl)c1"
1.1

Identify the reported Intrinsic clearance for the following entry. "O=C(N[C@@H]1CCC[C@@H](NC(=O)c2cccc(Cl)c2)C1)c1cccc(F)c1"
0.8

---

Protocol: Ratio of drug uptake in brain to plasma of CD-1 mouse at 10 mg/kg, po at 1 hr
Assay type: ADME, organism-based
Parameters: dose 10 mg/kg, route oral
Condition description: read-out: BPR
Readout type: Kp at 1 h

Identify the reported Kp at 1 h for the following entry. "Cc1cccc(C(=O)N[C@H]2CCC[C@]3(CN=C(c4cccc(Cl)c4)O3)C2)n1"
0.5

---

Give measured solubility kinetic at 4 h for each item. Keep answers brief.
Protocol: Kinetic solubility of the compound in potassium phosphate buffer after 4 hrs
Assay type: physicochemical
Condition description: read-out: Kinetic_solubility
Write the answer as a number in µM, unit excluded.

Identify the reported solubility kinetic at 4 h for the following entry. "O=C(N[C@@H]1CCC[C@@H](NC(=O)c2ccccn2)C1)c1cccc(Cl)c1"
240

Identify the reported solubility kinetic at 4 h for the following entry. "N#Cc1cccc(C(=O)N[C@@H]2CCC[C@@H](NC(=O)c3ccccn3)C2)c1"
240

Identify the reported solubility kinetic at 4 h for the following entry. "O=C(N[C@@H]1CCC[C@@H](NC(=O)c2cccc(Cl)c2)C1)c1cccc(F)c1"
5.4

---

Give measured IC50 for each item. Keep answers brief.
Target of assay: UniProt P41594
Sequence (P41594 whole entry): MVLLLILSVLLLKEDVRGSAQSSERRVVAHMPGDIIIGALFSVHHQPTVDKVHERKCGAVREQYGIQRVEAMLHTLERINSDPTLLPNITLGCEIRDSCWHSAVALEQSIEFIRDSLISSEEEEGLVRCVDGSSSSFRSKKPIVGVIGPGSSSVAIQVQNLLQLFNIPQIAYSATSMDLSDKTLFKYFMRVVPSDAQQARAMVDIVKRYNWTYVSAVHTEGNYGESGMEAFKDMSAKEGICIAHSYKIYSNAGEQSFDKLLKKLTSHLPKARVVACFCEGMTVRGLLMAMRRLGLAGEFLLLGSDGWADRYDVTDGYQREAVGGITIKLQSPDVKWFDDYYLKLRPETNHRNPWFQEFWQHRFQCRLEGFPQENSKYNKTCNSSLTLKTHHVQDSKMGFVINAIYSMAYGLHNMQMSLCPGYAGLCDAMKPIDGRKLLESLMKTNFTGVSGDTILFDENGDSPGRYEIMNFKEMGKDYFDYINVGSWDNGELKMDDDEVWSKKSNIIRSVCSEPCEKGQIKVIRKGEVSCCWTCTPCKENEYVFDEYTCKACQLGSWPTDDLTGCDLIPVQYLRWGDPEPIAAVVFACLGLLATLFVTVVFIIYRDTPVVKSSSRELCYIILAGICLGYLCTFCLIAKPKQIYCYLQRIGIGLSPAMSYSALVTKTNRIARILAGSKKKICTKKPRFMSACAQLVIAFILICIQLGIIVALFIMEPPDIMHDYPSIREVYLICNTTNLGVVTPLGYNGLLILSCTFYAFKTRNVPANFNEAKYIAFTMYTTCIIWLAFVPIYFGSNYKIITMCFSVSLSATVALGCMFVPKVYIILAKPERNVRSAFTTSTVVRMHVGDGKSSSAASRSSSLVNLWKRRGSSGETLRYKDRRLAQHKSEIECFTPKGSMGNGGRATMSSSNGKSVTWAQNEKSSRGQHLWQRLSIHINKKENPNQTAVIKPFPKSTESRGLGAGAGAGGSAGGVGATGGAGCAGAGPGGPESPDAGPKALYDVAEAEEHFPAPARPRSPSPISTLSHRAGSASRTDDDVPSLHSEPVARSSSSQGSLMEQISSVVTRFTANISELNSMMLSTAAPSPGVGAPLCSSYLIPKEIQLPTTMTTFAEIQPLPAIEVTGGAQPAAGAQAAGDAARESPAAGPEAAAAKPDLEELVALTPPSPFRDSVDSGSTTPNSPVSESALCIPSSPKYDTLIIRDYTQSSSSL
Protocol: Antagonist activity at human mGluR5 expressed in HEK293 cells assessed as inhibition of Ca2+ mobilization by FLIPR assay
Write the answer as a number in nM, unit excluded.

State IC50 (UniProt P41594) of Cc1cccnc1C(=O)N[C@H]1CCC[C@H](NC(=O)c2cccc(Cl)c2)C1 (relative stereo) .
7840

State IC50 (UniProt P41594) of Cc1cccc(C(=O)N[C@H]2CCC[C@@]3(CN=C(c4cccc(Cl)c4)O3)C2)n1 (relative stereo) .
1510

State IC50 (UniProt P41594) of O=C(N[C@H]1CCC[C@H](NC(=O)c2cccc(Cl)c2)C1)c1cccnc1 (relative stereo) .
612

State IC50 (UniProt P41594) of COc1cccc(C(=O)N[C@H]2CCC[C@H](NC(=O)c3cccc(Cl)c3)C2)c1 (relative stereo) .
789

State IC50 (UniProt P41594) of O=C(N[C@H]1CCC[C@H](NC(=O)c2ncccn2)C1)c1cccc(Cl)c1 (relative stereo) .
425

State IC50 (UniProt P41594) of O=C(N[C@H]1CCC[C@H](NC(=O)c2cccc(Cl)c2)C1)c1ccncc1 (relative stereo) .
300

State IC50 (UniProt P41594) of O=C(N[C@H]1CCC[C@H](NC(=O)c2cccc(Cl)c2)C1)c1ccccc1 (relative stereo) .
228

State IC50 (UniProt P41594) of Cc1ccnc(C(=O)N[C@H]2CCC[C@H](NC(=O)c3cccc(Cl)c3)C2)c1 (relative stereo) .
3400

State IC50 (UniProt P41594) of "O=C(N[C@H]1CCC[C@H](NC(=O)c2cccc(Cl)c2)C1)c1cccc(F)c1" .
9600

State IC50 (UniProt P41594) of "O=C(N[C@@H]1CCC[C@@]2(CN=C(c3cccc(Cl)c3)O2)C1)c1ccccn1" .
2910

State IC50 (UniProt P41594) of "O=C(N[C@H]1CCC[C@H](C(=O)Nc2cccc(Cl)c2)C1)c1ccccn1" .
468

State IC50 (UniProt P41594) of Cc1cccc(C(=O)N[C@@H]2CCC[C@@]3(CN=C(c4cccc(Cl)c4)O3)C2)n1 (relative stereo) .
72

State IC50 (UniProt P41594) of O=C(NC1CCCC(NC(=O)c2ccccn2)C1)c1cccc(Cl)c1 (racemic) .
314

State IC50 (UniProt P41594) of "O=C(N[C@H]1CCC[C@H](NC(=O)c2ccccn2)C1)c1ccccn1" .
1150

State IC50 (UniProt P41594) of O=C(N[C@H]1CCC[C@H](NC(=O)c2ccccc2F)C1)c1cccc(Cl)c1 (relative stereo) .
175

State IC50 (UniProt P41594) of "CN(C)c1ccc(C(=O)N[C@H]2CCC[C@H](NC(=O)c3cccc(Cl)c3)C2)cc1" .
473

State IC50 (UniProt P41594) of "O=C(N[C@H]1CCC[C@H](NC(=O)c2cccc(F)c2)C1)c1cccc(F)c1" .
593

State IC50 (UniProt P41594) of N#Cc1cccc(C(=O)NC2CCCC(NC(=O)c3ccccn3)C2)c1 (racemic) .
531

State IC50 (UniProt P41594) of "O=C(N[C@@H]1CCC[C@@H](NC(=O)c2cccc(Cl)c2)C1)c1cccc(F)c1" .
59

State IC50 (UniProt P41594) of O=C(N[C@H]1CCC[C@H](NC(=O)C2CCCCC2)C1)c1cccc(Cl)c1 (relative stereo) .
857

State IC50 (UniProt P41594) of "Cc1cccc(C(=O)N[C@@H]2CCC[C@@]3(CN=C(c4cccc(Cl)c4)O3)C2)n1" .
5230
